- subject of test: F508delCFTR (Homo sapiens, UniProt P13569, DEL508-508)
- Construct: expressed in transfected cells; host or cells: CFBE41o- human lung-derived epithelial cells (CFBE41o-F508delCFTR-HRP), doxycycline-inducible
- Sequence (P13569 with tags, fused parts or gaps DEL508-508): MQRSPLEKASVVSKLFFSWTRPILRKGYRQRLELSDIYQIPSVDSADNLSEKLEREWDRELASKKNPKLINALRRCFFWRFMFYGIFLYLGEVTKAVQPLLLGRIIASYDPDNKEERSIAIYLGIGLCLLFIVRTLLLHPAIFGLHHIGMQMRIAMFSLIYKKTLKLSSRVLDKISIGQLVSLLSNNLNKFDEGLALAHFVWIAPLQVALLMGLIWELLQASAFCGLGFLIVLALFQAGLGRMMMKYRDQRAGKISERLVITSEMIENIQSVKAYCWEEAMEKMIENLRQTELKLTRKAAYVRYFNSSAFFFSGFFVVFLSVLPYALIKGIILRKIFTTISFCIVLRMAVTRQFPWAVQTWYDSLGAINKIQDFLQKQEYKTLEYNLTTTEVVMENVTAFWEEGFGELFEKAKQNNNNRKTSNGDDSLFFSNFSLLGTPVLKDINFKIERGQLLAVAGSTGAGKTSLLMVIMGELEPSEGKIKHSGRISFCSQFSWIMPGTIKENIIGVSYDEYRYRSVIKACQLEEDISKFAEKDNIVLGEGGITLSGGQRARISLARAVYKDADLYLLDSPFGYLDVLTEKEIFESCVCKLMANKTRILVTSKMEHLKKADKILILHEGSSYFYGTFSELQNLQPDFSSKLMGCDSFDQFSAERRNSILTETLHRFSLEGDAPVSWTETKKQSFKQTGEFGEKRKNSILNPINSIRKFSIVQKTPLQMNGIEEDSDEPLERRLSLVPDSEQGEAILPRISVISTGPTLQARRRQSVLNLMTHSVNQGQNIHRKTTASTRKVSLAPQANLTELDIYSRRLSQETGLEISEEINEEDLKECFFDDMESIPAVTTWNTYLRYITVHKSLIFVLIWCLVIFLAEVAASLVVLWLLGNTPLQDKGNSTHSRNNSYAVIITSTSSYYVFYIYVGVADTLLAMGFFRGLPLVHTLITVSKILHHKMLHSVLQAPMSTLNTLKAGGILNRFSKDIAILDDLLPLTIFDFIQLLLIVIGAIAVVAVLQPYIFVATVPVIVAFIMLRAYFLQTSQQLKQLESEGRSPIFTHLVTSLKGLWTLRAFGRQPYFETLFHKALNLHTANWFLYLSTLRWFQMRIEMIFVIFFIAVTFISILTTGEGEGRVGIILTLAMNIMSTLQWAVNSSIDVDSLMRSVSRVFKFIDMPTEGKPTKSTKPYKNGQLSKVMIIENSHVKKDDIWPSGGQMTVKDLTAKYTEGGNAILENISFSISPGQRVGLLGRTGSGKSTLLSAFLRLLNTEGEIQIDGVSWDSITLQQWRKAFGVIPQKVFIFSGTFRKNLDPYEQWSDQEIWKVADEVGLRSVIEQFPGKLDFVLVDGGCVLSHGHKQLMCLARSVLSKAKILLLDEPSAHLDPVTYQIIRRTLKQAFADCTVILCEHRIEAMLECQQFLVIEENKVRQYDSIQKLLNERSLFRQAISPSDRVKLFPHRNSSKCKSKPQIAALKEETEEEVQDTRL
- assay info: Cell Surface Expression-Horse Radish Peroxidase (CSE-HRP) assay, test compound without co-corrector;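 for Emax: percent of on-plate 2 µM positive control corrector response over DMSO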
- Assay type: cell-based
- condition details: maximum at any tested concentration, normalized to positive control, without co-corrector
reported metric: Emax

Emax lookup needed for Cc1ccccc1S(=O)(=O)NC(=O)C1(C)CCc2cccc(Cl)c21 (stereo not drawn) , thanks. 50 to 150%

Name the reported Emax value associated with the molecule O=C(NS(=O)(=O)c1ccccc1Cl)C1CCc2c(Cl)cccc21 (stereo not drawn) 50 to 150%

Look at this molecule and give its reported Emax. COc1ccc2c(c1)[C@@](C)(C(=O)NS(=O)(=O)c1cccc3ccccc13)CC2 ≥ 150%

Requested read-out: Emax. Entry: COc1cccc2c1CCC2C(=O)NS(=O)(=O)c1cc(F)ccc1F (stereo not drawn) < 50%

Which value of Emax has been reported for CCc1ccccc1S(=O)(=O)NC(=O)C1CCc2c(Cl)cccc21 (stereo not drawn) in the records? 50 to 150%

Form field: reported Emax of COc1ccc(C)c2c1CC[C@@H]2C(=O)NS(=O)(=O)c1cccc2ccccc12 ≥ 150%

Fill blank: measured Emax of the molecule COc1ccc2c(c1)CC[C@]2(C)C(=O)NS(=O)(=O)c1cccc2ccccc12 is ____. ≥ 150%

What measured Emax goes with COc1cccc2c1CCC2C(=O)NS(=O)(=O)c1c(C)nn(C)c1C (stereo not drawn) ? < 50%

GET /values?readout=Emax&item= COc1ccc(Br)c2c1C(C(=O)NS(=O)(=O)c1cccc3c(OC)cccc13)CC2 (stereo not drawn) ≥ 150%

* * *

- subject of test: F508delCFTR (Homo sapiens, UniProt P13569, DEL508-508)
- Construct: expressed in transfected cells; host or cells: CFBE41o- human lung-derived epithelial cells (CFBE41o-F508delCFTR-HRP), doxycycline-inducible
- assay info: Cell Surface Expression-Horse Radish Peroxidase (CSE-HRP) assay, test compound with co-corrector;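 note: percent of 2 µM positive control corrector over DMSO; co-corrector is that same compound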
- Type: cell-based
- condition details: maximum at any tested concentration, normalized to positive control, with 2 μM co-corrector
reported metric: Maximum % activity (with co-corrector)

// solved cases for Maximum % activity (with co-corrector) follow
[
  {
    "compound": "COc1ccc(-c2ccc(C)cc2)c2c1CCCC2C(=O)NS(=O)(=O)c1cccc2ccccc12 (centres unmarked)",
    "Maximum % activity (with co-corrector)": "+++ (≥350)"
  },
  {
    "compound": "CCC1(C(=O)NS(=O)(=O)c2cccc(C3CCC3)c2C)CCc2c(Cl)cccc21 (centres unmarked)",
    "Maximum % activity (with co-corrector)": "++ (≥150 and <350)"
  },
  {
    "compound": "O=C(NS(=O)(=O)c1cccc2ccccc12)C1CCCc2cccc(Cl)c21 (centres unmarked)",
    "Maximum % activity (with co-corrector)": "+++ (≥350)"
  },
  {
    "compound": "CCOC(=O)COc1ccc(Br)c2c1CCCC2C(=O)NS(=O)(=O)c1cccc2ccccc12 (centres unmarked)",
    "Maximum % activity (with co-corrector)": "++ (≥150 and <350)"
  },
  {
    "compound": "COc1ccc(Br)c2c1CCC[C@H]2C(=O)NS(=O)(=O)c1cccc2ccccc12",
    "Maximum % activity (with co-corrector)": "+++ (≥350)"
  }
]

Reported Maximum % activity (with co-corrector) for COc1ccc(C2CCC2)c2c1[C@H](C(=O)NS(=O)(=O)c1cccc3ccccc13)C2 (single isomer, unassigned) : what is it? +++ (≥350)

Any idea what its Maximum % activity (with co-corrector) is? The compound is COc1ccc(C2CCC2)c2c1C(C(=O)NS(=O)(=O)c1cccc3ccccc13)CCC2 (centres unmarked) +++ (≥350)

For the compound shown here, COc1ccc(C2CCC2)c2c1CCCC2C(=O)NS(=O)(=O)c1cccc2ccccc12 (centres unmarked) , give the reported Maximum % activity (with co-corrector). +++ (≥350)

* * *

- subject of test: F508delCFTR (Homo sapiens, UniProt P13569, DEL508-508)
- Construct: expressed in transfected cells; host or cells: CFBE41o- human lung-derived epithelial cells (CFBE41o-F508delCFTR-HRP), doxycycline-inducible
- assay info: Cell Surface Expression-Horse Radish Peroxidase (CSE-HRP) assay, test compound without co-corrector;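 for Emax: percent of on-plate 2 µM positive control corrector response over DMSO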
- Assay type: cell-based
- condition details: maximum at any tested concentration, normalized to positive control, without co-corrector
reported metric: Emax

Form field - read-out: Emax; system: F508delCFTR (Homo sapiens, UniProt P13569, DEL508-508); submitted item: COc1cccc2c1CCC2C(=O)NS(=O)(=O)c1nnc(NC(C)=O)s1 (centres unmarked) < 50%

Recall the recorded Emax for CCC1(C(=O)NS(=O)(=O)c2cccc3ccccc23)CCc2c(Cl)cccc21 (centres unmarked) with F508delCFTR (Homo sapiens, UniProt P13569, DEL508-508) and state it. ≥ 150%

For the record CCC1(C(=O)NS(=O)(=O)c2cccc3ccn(C)c23)CCc2c(Cl)cccc21 (centres unmarked) , what value of Emax is listed for F508delCFTR (Homo sapiens, UniProt P13569, DEL508-508)? ≥ 150%

Field: Emax (F508delCFTR (Homo sapiens, UniProt P13569, DEL508-508)). Entry: CCC1(C(=O)NS(=O)(=O)c2cccc3ncccc23)CCc2c(Cl)cccc21 (centres unmarked) ≥ 150%

Could you share what Emax was measured for CCC1(C(=O)NS(=O)(=O)c2ccccc2Oc2ccccc2)CCc2c(Cl)cccc21 (centres unmarked) , tested on F508delCFTR (Homo sapiens, UniProt P13569, DEL508-508)? < 50%

Recorded Emax for O=C(NS(=O)(=O)c1cccc2ccccc12)[C@@H]1CCCc2cccc(Cl)c21 with F508delCFTR (Homo sapiens, UniProt P13569, DEL508-508), please? ≥ 150%

Provide value of Emax for this record tested with F508delCFTR (Homo sapiens, UniProt P13569, DEL508-508): COc1ccc(C2CCC2)c2c1[C@H](C(=O)NS(=O)(=O)c1cccn3nccc13)CC2 ≥ 150%

Report Emax for O=C(NS(=O)(=O)c1cccc2ccccc12)C1(CO)CCc2c(Cl)cccc21 (centres unmarked) tested on F508delCFTR (Homo sapiens, UniProt P13569, DEL508-508). 50 to 150%

* * *

Please go through the items and note down their EC50.
- subject of test: F508delCFTR (Homo sapiens, UniProt P13569, DEL508-508)
- Construct: expressed in transfected cells; host or cells: CFBE41o- human lung-derived epithelial cells (CFBE41o-F508delCFTR-HRP), doxycycline-inducible
- assay info: Cell Surface Expression-Horse Radish Peroxidase (CSE-HRP) assay, test compound without co-corrector
- Format: cell-based
- condition details: test compound without co-corrector

What does the record list as EC50 for CCC1(C(=O)NS(=O)(=O)c2cccc3c(Cl)cccc23)CCc2c(Cl)cccc21 (centres unmarked) [Example I-39] ? < 3 µM

Which EC50 is reported for this molecule? CCC1(C(=O)NS(=O)(=O)c2cccc3ccccc23)CCc2c(Br)ccc(OC)c21 (centres unmarked) [Example I-28] < 3 µM

State the recorded EC50 for this entry: COc1ccc(C2CCC2)c2c1[C@H](C(=O)NS(=O)(=O)c1cccc3nc(C)ccc13)CC2 [Example I-128] 3 to 10 µM

Looking for the measured EC50 of CC1(C(=O)NS(=O)(=O)c2cccc3ccccc23)CCc2cccc(Cl)c21 (centres unmarked) [Example I-14] , can you help? < 3 µM

Recorded EC50 for COc1ccc(-c2ccc(C3CC3)nc2)c2c1CCCC2C(=O)NS(=O)(=O)c1cccc2ccccc12 (centres unmarked) [II-131] , please? < 3 µM

Fill in the blank: the reported EC50 of CCc1ccccc1S(=O)(=O)NC(=O)C1CCc2c(OC)cccc21 (centres unmarked) [II-24] is ____. 3 to 10 µM

Look up EC50 for this molecule: COc1ccc2c(c1OC)CCCC2C(=O)NS(=O)(=O)c1ccccc1C (centres unmarked) [II-9] ≥ 10 µM

Which measured EC50 value corresponds to COc1ccc(Cl)c2c1CC[C@@H]2C(=O)NS(=O)(=O)c1cccc2ccccc12 (single isomer, unassigned) [Example I-87] ? 3 to 10 µM

Given COc1cccc2c1CC(C(=O)NS(=O)(=O)c1ccccc1C)C2 (centres unmarked) [II-16] , state its recorded EC50. 3 to 10 µM

Look at this molecule and give its reported EC50. COc1ccc(C2CCC2)c2c1[C@@H](C(=O)NS(=O)(=O)c1cccc3c1CCCN3)C2 (single isomer, unassigned) [Example I-145] 3 to 10 µM

Entry under review: Cc1ccccc1S(=O)(=O)NC(=O)C1CCc2c(-c3ccc(F)nc3)cccc21 (centres unmarked) [III-89] . Reported EC50? ≥ 10 µM

Requested field: EC50. Item: COc1cccc2c1CCC2C(=O)NS(=O)(=O)c1ccc(C)c([N+](=O)[O-])c1C (centres unmarked) [III-49] ≥ 10 µM

What does the data say about its EC50? Entry: COc1ccc(C2CCC2)c2c1[C@H](C(=O)NS(=O)(=O)c1cccc3c1CCCN3)C2 [Example I-146] < 3 µM

What measured EC50 goes with Cc1ccccc1S(=O)(=O)NC(=O)C1CCc2c(Br)cccc21 (centres unmarked) [II-33] ? 3 to 10 µM

Report EC50 for CCc1ccccc1S(=O)(=O)NC(=O)C1CCc2c(Cl)cccc21 (centres unmarked) [II-25] please. 3 to 10 µM

Please report the recorded EC50 for Cc1ccccc1S(=O)(=O)NC(=O)C1CCc2c(-c3ccc(N4CCN(C)CC4)nc3)cccc21 (centres unmarked) [III-87] . ≥ 10 µM

EC50 for CCC1(C(=O)NS(=O)(=O)N2CCCc3ccccc32)CCc2c(Cl)cccc21 (centres unmarked) [Example II-80] ? ≥ 10 µM

Hey, just so you know, these numbers are from patent US20180244611A1.
